# assayed-target: Calmodulin Kinase (calmodulin-dependent protein kinase 2) (Rattus norvegicus, UniProt P11275)
# Construct: a truncated version of the alpha subunit of the rat protein; purchased New England Biolabs 6060; host or cells: insect cells
# protocol-summary: Kinase Selectivity Assay Calmodulin Kinase
# Assay type: biochemical
# condition-summary: Kinase Selectivity, Tables 2a-2k; read-out: Calmodulin Kinase 2 IC50
pIC50: −log10 of the molar value.
measurement-kind: pIC50

input: Record request: pIC50 value, item "Cc1ccc(F)c(C(=O)n2nc(Nc3ccc(N4CCNC4=O)cc3)nc2N)c1F"
output: < 4.00

input: Record request: pIC50 value, item "Cc1ccc(F)c(C(=O)n2nc(Nc3ccc(S(=O)(=O)NCCN(C)C)cc3)nc2N)c1F"
output: < 4.00

input: Record request: pIC50 value, item "Nc1nc(Nc2ccc(S(=O)(=O)N3CCCCC3)cc2)nn1C(=O)c1cccs1"
output: 4.98

input: Record request: pIC50 value, item "CCc1ccc(C(=O)n2nc(Nc3ccc(S(N)(=O)=O)cc3)nc2N)s1"
output: < 4.00

input: Record request: pIC50 value, item "CCc1ccc(C(=O)n2nc(Nc3ccc(NS(C)(=O)=O)cc3)nc2N)s1"
output: < 4.00

input: Record request: pIC50 value, item "CNS(=O)(=O)c1ccc(Nc2nc(N)n(C(=O)c3sccc3C)n2)cc1"
output: < 4.00

input: Record request: pIC50 value, item "CCc1ccc(C(=O)n2nc(Nc3ccc(S(=O)(=O)NC)cc3)nc2N)s1"
output: < 4.00

input: Record request: pIC50 value, item "CN1CCN(c2ccc(Nc3nc(N)n(C(=O)c4c(F)cccc4F)n3)cc2)CC1"
output: 4.22

input: Record request: pIC50 value, item "Nc1nc(Nc2ccc(S(N)(=O)=O)cc2)nn1C(=O)c1c(F)cccc1F"
output: < 4.00

input: Record request: pIC50 value, item "Nc1nc(Nc2ccc(S(N)(=O)=O)cc2)nn1C(=O)C1CCCC1"
output: < 4.00

input: Record request: pIC50 value, item "CC(C)(C)c1ccc(C(=O)n2nc(Nc3ccc(S(N)(=O)=O)cc3)nc2N)s1"
output: 6.09

input: Record request: pIC50 value, item "Nc1nc(Nc2ccc(S(N)(=O)=O)cc2)nn1C(=O)c1cccs1"
output: 4.22

input: Record request: pIC50 value, item "Cc1ccccc1C(=O)n1nc(Nc2ccc(S(N)(=O)=O)cc2)nc1N"
output: < 4.00

input: Record request: pIC50 value, item "Cc1ccsc1C(=O)n1nc(Nc2ccc(N3CCNC3=O)cc2)nc1N"
output: < 5.00

input: Record request: pIC50 value, item "Nc1nc(Nc2ccc(S(N)(=O)=O)cc2)nn1C(=O)c1c(F)cccc1Cl"
output: < 4.00

input: Record request: pIC50 value, item "Nc1nc(Nc2ccc(S(N)(=O)=O)cc2)nn1C(=O)C1CCCCC1"
output: < 4.00

input: Record request: pIC50 value, item "Cc1ccsc1C(=O)n1nc(Nc2ccc(S(=O)(=O)Nc3ccccn3)cc2)nc1N"
output: < 4.00

input: Record request: pIC50 value, item "Cc1ccsc1C(=O)n1nc(Nc2ccc(-n3cncn3)cc2)nc1N"
output: < 4.00

input: Record request: pIC50 value, item "Cc1cc(C)c(C(=O)n2nc(Nc3ccc(S(=O)(=O)NCCN(C)C)cc3)nc2N)s1"
output: 5.46

input: Record request: pIC50 value, item "Cc1nc(C)c(C(=O)n2nc(Nc3ccc(S(N)(=O)=O)cc3)nc2N)s1"
output: < 4.00

input: Record request: pIC50 value, item "Nc1nc(Nc2ccc(S(N)(=O)=O)cc2)nn1C(=O)c1ccsc1"
output: 4.05

input: Record request: pIC50 value, item "Cc1ccsc1C(=O)n1nc(Nc2ccc(NS(C)(=O)=O)cc2)nc1N"
output: < 4.00

input: Record request: pIC50 value, item "Cc1ccsc1C(=O)n1nc(Nc2ccc(S(=O)(=O)NCCN(C)C)cc2)nc1N"
output: < 5.00

input: Record request: pIC50 value, item "CCc1ccc(C(=O)n2nc(Nc3ccc(S(=O)(=O)Nc4ccccn4)cc3)nc2N)s1"
output: < 4.00

input: Record request: pIC50 value, item "Nc1nc(Nc2ccc(S(N)(=O)=O)cc2)nn1C(=O)c1sccc1F"
output: < 4.00

input: Record request: pIC50 value, item "Nc1ccc(F)c(C(=O)n2nc(Nc3ccc(S(N)(=O)=O)cc3)nc2N)c1F"
output: < 4.00

input: Record request: pIC50 value, item "Cc1ccc(F)c(C(=O)n2nc(N)nc2Nc2ccc(S(N)(=O)=O)cc2)c1F"
output: < 4.00

input: Record request: pIC50 value, item "Nc1nc(Nc2ccc(N3CCCS3(=O)=O)cc2)nn1C(=O)c1c(F)cccc1F"
output: < 4.00

input: Record request: pIC50 value, item "Nc1nc(Nc2ccc(S(N)(=O)=O)cc2)nn1C(=O)c1sccc1Cl"
output: 5.55

input: Record request: pIC50 value, item "Cc1cc(C)c(C(=O)n2nc(Nc3ccc(S(=O)(=O)Nc4ccccn4)cc3)nc2N)s1"
output: < 4.00

input: Record request: pIC50 value, item "CCc1ccc(C(=O)n2nc(Nc3ccc(S(=O)(=O)NCCN(C)C)cc3)nc2N)s1"
output: < 4.00

input: Record request: pIC50 value, item "Cc1ccc(F)c(C(=O)n2nc(Nc3ccc(S(N)(=O)=O)cc3)nc2N)c1Cl"
output: < 4.00

Ref: patent US6924302B2
